Target under test: USP1/UAF1 enzyme (Homo sapiens)
Sequence (O94782 whole entry): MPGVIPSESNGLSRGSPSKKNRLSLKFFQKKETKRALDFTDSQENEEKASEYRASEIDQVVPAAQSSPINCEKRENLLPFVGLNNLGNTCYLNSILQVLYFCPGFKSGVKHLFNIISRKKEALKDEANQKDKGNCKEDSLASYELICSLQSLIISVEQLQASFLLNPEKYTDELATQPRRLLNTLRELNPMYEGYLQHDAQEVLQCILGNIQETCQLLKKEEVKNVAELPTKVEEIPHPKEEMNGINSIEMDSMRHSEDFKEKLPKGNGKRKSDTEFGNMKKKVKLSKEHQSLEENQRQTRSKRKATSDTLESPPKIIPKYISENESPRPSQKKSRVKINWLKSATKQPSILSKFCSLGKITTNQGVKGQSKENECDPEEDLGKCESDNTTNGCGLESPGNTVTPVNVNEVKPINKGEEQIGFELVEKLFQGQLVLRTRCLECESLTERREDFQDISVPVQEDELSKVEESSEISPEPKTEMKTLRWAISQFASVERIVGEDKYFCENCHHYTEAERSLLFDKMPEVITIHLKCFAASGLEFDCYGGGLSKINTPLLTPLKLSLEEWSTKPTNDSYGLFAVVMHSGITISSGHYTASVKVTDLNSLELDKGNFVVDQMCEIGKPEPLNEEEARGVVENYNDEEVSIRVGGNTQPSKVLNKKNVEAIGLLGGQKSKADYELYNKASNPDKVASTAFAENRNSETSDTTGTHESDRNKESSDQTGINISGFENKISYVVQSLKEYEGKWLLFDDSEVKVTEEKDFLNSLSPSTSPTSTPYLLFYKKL
Sequence (Q8TAF3 whole entry partner): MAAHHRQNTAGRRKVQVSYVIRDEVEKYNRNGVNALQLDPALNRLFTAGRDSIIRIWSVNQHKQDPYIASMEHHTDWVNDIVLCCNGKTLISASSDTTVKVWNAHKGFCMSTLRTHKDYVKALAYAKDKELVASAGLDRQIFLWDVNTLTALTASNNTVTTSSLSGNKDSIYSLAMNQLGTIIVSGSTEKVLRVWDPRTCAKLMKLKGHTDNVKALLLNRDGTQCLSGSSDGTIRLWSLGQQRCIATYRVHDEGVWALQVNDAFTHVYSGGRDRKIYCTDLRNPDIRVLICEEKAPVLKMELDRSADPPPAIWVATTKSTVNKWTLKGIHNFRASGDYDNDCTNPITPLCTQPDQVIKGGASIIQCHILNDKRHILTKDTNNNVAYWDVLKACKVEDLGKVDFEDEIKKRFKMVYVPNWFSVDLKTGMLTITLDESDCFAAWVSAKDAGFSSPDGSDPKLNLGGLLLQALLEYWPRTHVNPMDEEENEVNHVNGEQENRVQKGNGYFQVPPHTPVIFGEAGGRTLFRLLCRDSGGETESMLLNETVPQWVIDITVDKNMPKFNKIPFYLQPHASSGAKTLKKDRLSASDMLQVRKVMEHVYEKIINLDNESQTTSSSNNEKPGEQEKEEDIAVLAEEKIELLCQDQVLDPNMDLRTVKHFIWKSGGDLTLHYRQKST
Test: USP1/UAF1 deubiquitination assay (ubiquitin-rhodamine 110 substrate)
Test settings: read-out: USP1 IC50 (Ub-Rho)
Quick reference for IC50 among some compounds

Specify the recorded IC50 for `CCn1cc(C(F)(F)F)nc1-c1ccc([C@@H](C)N2C(=O)CCn3nc(-c4c(C#N)cnn4C(C)C)cc32)cc1F` , system: USP1/UAF1 enzyme (Homo sapiens).
100 to 500 nM

---

Test: Liver microsomal metabolic stability, rat liver microsomes (RLM)
Test settings: rat, liver microsomes, t1/2 (min) in RLM, 1 μM compound, 1 mg/mL microsomes, NADPH
Consider the following molecules and their measured half-life at 1 μM readings.

The examples below pair each entry with its known result.
Could you please provide reported half-life at 1 μM for CCn1cc(C(F)(F)F)nc1-c1ccc(NC2CCCn3nc(-c4c(OC(F)F)ncnc4C4CC4)cc32)cc1 (centres unmarked) ? Thanks!
> 25 min

For the molecule `CC(C)n1ncc(Cl)c1-c1cc2n(n1)CCCN2Cc1ccc(-c2nc(C(F)(F)F)cn2C)c(F)c1` , give its measured half-life at 1 μM value.
< 25 min

Supply reported half-life at 1 μM belonging to this molecule: COc1ncnc(C2CC2)c1-c1cc2n(n1)CCC(C)N2Cc1ccc(-c2nc(C(F)(F)F)cn2C)cc1 (racemic)
< 25 min

Answer with the recorded half-life at 1 μM for the molecule listed here: `COc1ncnc(C2CC2)c1-c1nc2n(n1)CCC(=O)N2Cc1ccc(-c2nc(C(F)(F)F)cn2C(C)C)cc1`
> 25 min

// fetch half-life at 1 μM given entry CCn1cc(C(F)(F)F)nc1-c1ccc(N[C@H]2CCCn3nc(-c4c(Cl)cnn4C(C)C)cc32)cc1 (single isomer, unassigned)
> 25 min

Next:
Specify reported half-life at 1 μM for the molecule shown: CCn1cc(C(F)(F)F)nc1-c1ccc(NC2CCCn3nc(-c4c(Cl)cnn4C(C)C)nc32)cc1F (centres unmarked)
> 25 min

Could you please provide reported half-life at 1 μM for `CC(C)n1ncc(Cl)c1-c1cc2n(n1)CCC(=O)N2Cc1ccc(-c2nn(C)cc2C#N)cc1` ? Thanks!
> 25 min

Note half-life at 1 μM for the molecule shown: `COc1ncnc(C2CC2)c1-c1cc2n(n1)CCC(=O)N2[C@@H](C)c1ccc(-c2nc(C(F)(F)F)cn2C(C)C)cc1`
> 25 min

---

// reported half-life at 1 μM per item
Test: Liver microsomal metabolic stability, rat liver microsomes (RLM)
Test settings: rat, liver microsomes, t1/2 (min) in RLM, 1 μM compound, 1 mg/mL microsomes, NADPH

As a guide, the following entries are already answered.
Give the value of half-life at 1 μM reported for the following: COc1ncnc(C)c1-c1cc2n(n1)CCCN2Cc1ccc(-c2nc(C(F)(F)F)cn2C)cc1 [Example 25]
< 25 min

Output half-life at 1 μM of CC(C)n1ncc(Cl)c1-c1cc2n(n1)CCC(=O)N2Cc1ccc(-c2nc(C(F)(F)F)cn2C)cc1 [Example 98]
> 25 min

Answer with the recorded half-life at 1 μM for the compound listed here: CCn1cc(C(F)(F)F)nc1-c1ccc([C@H](C)n2c(=O)ccn3nc(-c4c(OC)ncnc4C4CC4)cc23)cc1 [Example 336]
> 25 min

Would you kindly look at the next entry?
Look up and report measured half-life at 1 μM for this entry: COc1ncnc(C2CC2)c1-c1nc2n(n1)CCC(=O)N2C(C)c1ccc(-c2nc(C(F)(F)F)cn2C(C)C)cc1 (stereo not shown) [Example 169]
> 25 min
